- assay-summary: NCI Yeast Anticancer Drug Screen. Data for the CLN2oe strain (AID 163);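 note: 0% = growth of vehicle-only control cultures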
- test-context: S. cerevisiae CLN2oe strain, at 100.0 µM, active compounds read high
The panel holds about 79,000 compounds, 15% with a hit somewhere; the sample as a whole holds those more often.
# if value of growth inhibition reaches 30%, tag Yes; if it stays below, tag No

Ask | Check if growth inhibition >= 30% (inclusive). Item: "CCc1nc(N)nc(N)c1-c1ccc(NCCCCCCN)c([N+](=O)[O-])c1"
Reply | No

====

- assay-summary: NCI Yeast Anticancer Drug Screen. Data for the wt1 strain (AID 149);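 note: 0% = growth of vehicle-treated wt1 cultures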
- test-context: S. cerevisiae wt1 strain (SPY 50644) growth inhibition; at 100.0 µM
Compounds without any hit were thinned out: in the full panel of roughly 79,000, 15% have a hit. Activity calls are given as the source filed them. No stated cut-off is given here; in the data, active means growth inhibition above about 70%; inactive means the rest.
Your response should consist of one outcome taken from 1 for active, -1 for inactive

A selection of reference data follows.
CC(=O)CC(=O)/C=C/c1cccs1
-1
Cc1cccc(/C=N\NC(=S)N2CCCCC2)n1
1

Kindly review the next molecule as well.
Ask | What outcome does the record of this test show for "O=C1c2c(O)cccc2-c2nn(CCNCCO)c3ccc(NCCNCCO)c1c23" ?
Reply | -1

====

# Lookup of reported growth inhibition keyed by entry
- assay-summary: NCI Yeast Anticancer Drug Screen. Data for the bub3 strain (AID 167)
- test-context: S. cerevisiae bub3 mutant strain, at 5.0 µM (retest, dose inferred, filed as 0.5), active compounds read high
The panel holds about 79,000 compounds, 15% with a hit somewhere; the sample as a whole holds those more often.
Please state the figure in %; there is no need to write the unit.

CCCCC(=O)c1c(O)nc2sccn2c1=O
47
CC(=O)OCC1OC(O[C@H]2C=C[C@@H](C(=O)OCc3ccccc3)n3c(=O)n(-c4ccccc4)c(=O)n32)C(OC(C)=O)C(OC(C)=O)C1OC(C)=O (some centres not stated)
28
O=c1[nH]cc(/C=N\Nc2ccccc2)c(=O)[nH]1
7
[N-]=[N+]=NC(c1ccccc1)(c1ccccc1)c1ccccc1
12
c1ccc2c(c1)ccc1c3ccncc3ccc21
16

Ask | Entry under review: "O=C(/C=N/O)Nc1cc(Cl)c(Cl)cc1Cl" . Reported growth inhibition?
Reply | 17

Ask | Query (compound): CC(=O)C1=C(O)C2(C)c3c(O)c(C)c(O)c(C(C)=O)c3OC2(Sc2ccccc2)CC1=O (configuration not stated) ; field requested: growth inhibition
Reply | 36

Ask | Fill blank: measured growth inhibition of the compound "COc1ccc(/C=C(\NC(=O)c2ccccc2)C(=O)NN(C)c2ccnc3cc(Cl)ccc23)cc1OC" is ____.
Reply | 9

Ask | GET /values?readout=growth inhibition&item= "Cc1cc(OCc2ccccc2)ccc1[N+](=O)[O-]"
Reply | 33

Ask | Need growth inhibition, item "S=c1nc(Cl)cc2[nH]c(Cl)cn12"
Reply | -30

Ask | Any idea what its growth inhibition is? The compound is "O=C(/C=C/c1cccc(Br)c1)c1ccc(Cl)cc1"
Reply | 52

Ask | What value of growth inhibition has been recorded for this entry: "Cc1ccc(S(=O)(=O)N(C)c2ccc(Cl)cc2C2=NCCc3ccccc32)cc1"
Reply | 52

Ask | So what does the record say about growth inhibition for CC1(C)C(C=O)=CCC1CC(N)=O (configuration not stated) ?
Reply | -19
